# ASSAY_PROCEDURE: JC-1 mitochondrial potential readout, lung cancer cells – cell-based, A549, JC-1 fluorescence, basal, 24 h, 100 nL, profiling panel (AID 1138);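 also: A549 lung adenocarcinoma cells under basal conditions with no added stimulus; test concentration not given here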
# PROTOCOL_CONDITIONS: higher = more signal
MEASURED_ATTRIBUTE: z-score
Answer with a number only.

Example entries and their recorded answers appear below.
C=CC[C@]1(C(=O)NCC(O)CO)N=C(c2ccc(OCCCO)cc2)O[C@H]1c1ccccc1N=[N+]=[N-] (some centres not stated)	-0.152
COc1ccc([Si](C)(C)[C@@H]2[C@@H](CC(=O)N(CCO)Cc3ccccc3)O[C@]3(C(=O)N(C)c4c(Br)cc(C)cc43)[C@H]2C)cc1	-1.33
COc1ccc([Si](C)(C)[C@H]2[C@H](CC(=O)N3CCC[C@H]3CO)O[C@@]3(C(=O)N(Cc4ccc(N5C(=O)c6cccc7cccc5c67)cc4)c4ccccc43)[C@@H]2C)cc1	0.285
O=C1CSC(c2cccc([N+](=O)[O-])c2)N1c1ccccc1 (configuration not stated)	0.774
CCCC=C(CCC)[C@@H](NS(=O)(=O)c1ccccc1)c1ccc(C(F)(F)F)cc1	-1.64
COC(=O)C(CC#Cc1ccc2c(c1)[C@]1(C(=O)N2)[C@H](c2ccc(O)cc2)N2[C@H](c3ccccc3)[C@H](c3ccccc3)OC(=O)[C@H]2[C@@H]1C(=O)O)C(=O)OC	-0.233

If you can, please state the reported z-score value of `COc1ccc(CCNC(=O)[C@@H]2c3ccccc3C(=O)N(Cc3ccccc3C(F)(F)F)[C@H]2c2ccc(CO)cc2)cc1` .
1.07
